So I've got a bunch of compounds here, and I need their pIC50 values.
Biological target: human NaV1.8 (Homo sapiens)
Construct: The following NaV1.8 recombinant cell line was used for recordings: HEK-NaV1.8 (NM 006514.1)
Sequence (Q9Y5Y9 whole entry): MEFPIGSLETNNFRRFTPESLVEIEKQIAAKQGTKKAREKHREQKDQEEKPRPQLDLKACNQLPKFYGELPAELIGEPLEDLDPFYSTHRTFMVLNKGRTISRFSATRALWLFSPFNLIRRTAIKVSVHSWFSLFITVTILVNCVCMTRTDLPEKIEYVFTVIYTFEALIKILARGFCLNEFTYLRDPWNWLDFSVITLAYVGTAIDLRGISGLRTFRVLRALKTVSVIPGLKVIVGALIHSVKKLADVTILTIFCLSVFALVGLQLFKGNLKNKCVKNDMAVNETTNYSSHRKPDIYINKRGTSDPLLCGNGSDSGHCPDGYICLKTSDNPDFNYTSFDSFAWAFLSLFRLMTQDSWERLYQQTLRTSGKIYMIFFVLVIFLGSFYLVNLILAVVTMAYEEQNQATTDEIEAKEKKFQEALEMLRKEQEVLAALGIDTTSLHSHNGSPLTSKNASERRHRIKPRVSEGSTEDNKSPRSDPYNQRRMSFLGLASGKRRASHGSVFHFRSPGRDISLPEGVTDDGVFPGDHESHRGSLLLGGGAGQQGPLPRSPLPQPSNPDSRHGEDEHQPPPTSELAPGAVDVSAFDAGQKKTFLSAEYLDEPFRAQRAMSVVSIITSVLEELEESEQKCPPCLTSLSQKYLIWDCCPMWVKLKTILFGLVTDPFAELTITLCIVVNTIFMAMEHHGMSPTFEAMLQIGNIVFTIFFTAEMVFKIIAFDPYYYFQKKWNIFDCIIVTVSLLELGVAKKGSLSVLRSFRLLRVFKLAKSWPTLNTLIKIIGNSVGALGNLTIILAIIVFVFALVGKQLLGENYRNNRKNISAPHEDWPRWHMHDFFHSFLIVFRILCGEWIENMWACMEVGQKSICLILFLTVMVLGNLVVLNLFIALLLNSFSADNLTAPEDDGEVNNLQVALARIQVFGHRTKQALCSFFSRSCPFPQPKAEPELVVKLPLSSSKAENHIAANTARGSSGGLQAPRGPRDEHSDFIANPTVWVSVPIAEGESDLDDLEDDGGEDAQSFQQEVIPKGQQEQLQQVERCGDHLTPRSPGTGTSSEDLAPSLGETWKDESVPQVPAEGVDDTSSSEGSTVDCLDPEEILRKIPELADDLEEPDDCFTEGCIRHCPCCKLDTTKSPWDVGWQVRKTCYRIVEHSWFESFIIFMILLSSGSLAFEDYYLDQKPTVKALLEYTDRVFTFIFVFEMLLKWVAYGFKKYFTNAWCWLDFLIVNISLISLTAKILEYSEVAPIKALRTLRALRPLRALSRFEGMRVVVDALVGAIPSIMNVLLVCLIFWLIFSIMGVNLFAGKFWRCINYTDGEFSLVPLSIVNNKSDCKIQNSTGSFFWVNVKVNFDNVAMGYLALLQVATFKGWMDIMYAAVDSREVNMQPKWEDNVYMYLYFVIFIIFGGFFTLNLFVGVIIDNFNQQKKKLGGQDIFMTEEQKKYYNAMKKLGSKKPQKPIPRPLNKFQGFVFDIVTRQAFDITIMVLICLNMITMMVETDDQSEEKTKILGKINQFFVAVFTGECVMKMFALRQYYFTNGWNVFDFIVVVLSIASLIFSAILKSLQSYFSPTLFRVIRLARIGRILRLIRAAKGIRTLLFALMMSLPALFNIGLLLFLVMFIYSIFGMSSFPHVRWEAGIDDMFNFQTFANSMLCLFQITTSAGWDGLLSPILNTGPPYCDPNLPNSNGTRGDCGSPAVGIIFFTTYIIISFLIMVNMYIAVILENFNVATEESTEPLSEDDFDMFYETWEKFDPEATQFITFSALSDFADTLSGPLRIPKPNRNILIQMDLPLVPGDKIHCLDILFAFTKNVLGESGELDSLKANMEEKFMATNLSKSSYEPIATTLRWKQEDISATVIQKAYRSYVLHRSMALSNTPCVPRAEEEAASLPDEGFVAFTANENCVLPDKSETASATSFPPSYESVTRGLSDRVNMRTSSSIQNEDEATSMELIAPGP
Sequence (Q9NY72 23-215 partner): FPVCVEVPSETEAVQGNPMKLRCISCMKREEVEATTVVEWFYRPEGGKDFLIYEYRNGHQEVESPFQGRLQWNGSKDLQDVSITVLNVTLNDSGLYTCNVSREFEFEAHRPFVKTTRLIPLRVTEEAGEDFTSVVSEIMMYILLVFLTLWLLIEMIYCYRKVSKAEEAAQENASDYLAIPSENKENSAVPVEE
Test: Electrophysiology: automated whole-cell voltage-clamp (patch clamp, Qube384) recordings of sodium currents in HEK-NaV1.8 cells
Settings: potency data either taken from inactivated or resting state, read-out: Potency category (human NaV1.8 IC50)
pIC50: −log10 of the molar value.

{"columns": ["COMPOUND", "ENDPOINT_LABEL", "RESULT"],
 "data": [
  ["CS(=O)(=O)c1cccc(NC(=O)c2c(C3CC3)cnn2CC2CCCCC2)c1", "pIC50", "6.00 to 7.00"]
]}

Give one value of pIC50 per listed compound.
1. NS(=O)(=O)c1cccc(NC(=O)c2c(C(F)(F)F)c(C3CC3)nn2CC2CCCCO2)c1 (stereo not drawn)
2. Cc1c(C(C)(F)F)nn(CC2(C(F)F)CC(F)(F)C2)c1C(=O)Nc1ccnc(S(N)(=O)=O)c1
3. Cc1nn(CC2CCC(F)(F)CC2)c(C(=O)Nc2ccnc(C(N)=O)c2C)c1C(F)(F)F
4. Cc1c(C(C)(F)F)nn(CC2(C)CCC(F)(F)C2)c1C(=O)Nc1ccnc(C(N)=O)c1 (single isomer, unassigned) [SC-214a]
5. NC(=O)c1cc(NC(=O)c2c(C(F)(F)F)c(C3CC3)nn2CC2CC2(F)F)ccn1 (single isomer, unassigned) [SC-279b]
6. NC(=O)c1cc(NC(=O)c2c(C(F)(F)F)c(C(F)F)nn2CC2CC(F)(F)C2)ccn1
7. CC(F)(F)c1nn(CC2CCC(F)(F)C2)c(C(=O)Nc2ccnc(C(N)=O)c2)c1Cl (single isomer, unassigned) [SC-149b]
8. Cc1c(C(C)(F)F)nn(CC2(C)CC(F)(F)C2)c1C(=O)Nc1ccnc(S(C)(=O)=O)c1

Response:
1: ≥ 7.00; 2: ≥ 7.00; 3: 5.00 to 6.00; 4: ≥ 7.00; 5: 6.00 to 7.00; 6: ≥ 7.00; 7: ≥ 7.00; 8: ≥ 7.00

Give one value of pIC50 per listed compound.
1. Cc1nn(CC2CCO2)c(C(=O)Nc2cccc(S(C)(=O)=O)c2)c1C(F)(F)F (stereo not drawn)
2. Cc1c(C(F)(F)F)nn(CC2CCC(F)(F)CC2)c1C(=O)Nc1cncc(S(N)(=O)=O)c1

Response:
5.00 to 6.00
6.00 to 7.00
